tested on: human neuronal progenitor cells (hNPCs, ReNcell VM); assay: Cell proliferation and vitality assay (CASY, current exclusion), hNPCs; assay type: cell-based; conditions: Homo sapiens, ReNcell VM
Parameter Measured: IC50 (nM)
Numbers only, in nM.

Input line: // returns reported IC50 for input "CC(=O)c1ccc(C2=C(c3c(C)[nH]c4ccccc34)C(=O)N(C)C2=O)cc1"
Output line: 532
